# Target desc: EGFR (D770_N771insNPG T790M) (Homo sapiens, UniProt P00533, INS770NPG/T790M)
# Construct: purchased SignalChem E10-132TG
# Sequence (P00533 with tags, fused parts or gaps INS770NPG/T790M limits assumed): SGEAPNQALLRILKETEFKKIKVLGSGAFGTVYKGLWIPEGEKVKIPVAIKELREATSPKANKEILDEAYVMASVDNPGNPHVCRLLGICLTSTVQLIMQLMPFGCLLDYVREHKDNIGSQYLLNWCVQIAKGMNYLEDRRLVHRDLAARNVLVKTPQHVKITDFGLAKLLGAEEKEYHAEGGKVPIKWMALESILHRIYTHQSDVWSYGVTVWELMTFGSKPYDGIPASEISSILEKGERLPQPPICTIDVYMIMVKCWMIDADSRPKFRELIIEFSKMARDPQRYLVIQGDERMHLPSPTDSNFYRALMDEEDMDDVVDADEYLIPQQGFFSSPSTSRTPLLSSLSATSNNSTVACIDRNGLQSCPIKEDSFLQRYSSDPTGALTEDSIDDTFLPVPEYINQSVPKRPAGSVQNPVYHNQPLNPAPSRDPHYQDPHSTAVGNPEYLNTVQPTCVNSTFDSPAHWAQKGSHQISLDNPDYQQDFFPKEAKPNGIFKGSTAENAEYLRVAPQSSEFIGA
# Protocol text: Biochemical EGFR inhibition assay (mobility shift), EGFR D770_N771insNPG T790M
# Conditions used: inhibitory activity against EGFR_D770_N771insNPG/T790M mutant; apparent IC50; read-out: Enz EGFR_D770_N771insNPG/T790M
pIC50: −log10 of the molar value.
Readout: pIC50

{"columns": ["Compound", "Readout", "Observed value"],
 "data": [
  ["[2H]C([2H])([2H])O[C@@H]1CCN(c2nccc(Nc3cc4c(C(C)C)ncc(N5CC(CS(C)(=O)=O)C5)c4cn3)n2)C[C@@H]1F", "pIC50", "6.60 to 7.00"],
  ["CC(C)c1cnc(N2CC(CS(C)(=O)=O)C2)c2cnc(Nc3ccnc(N4CCOCC4)n3)cc12", "pIC50", "6.12 to 6.60"],
  ["CC(C)c1cnc(N2C[C@@H](CS(C)(=O)=O)[C@@H]2C)c2cnc(Nc3ccnc(N4CC[C@@H](O)[C@@](C)(F)C4)n3)cc12 (single isomer, unassigned)", "pIC50", "7.00 to 7.70"],
  ["CC(C)c1cnc(N2CC(CS(C)(=O)=O)C2)c2cnc(Nc3ccnc(N4C[C@@H](F)[C@@H](F)C4)n3)cc12", "pIC50", "6.12 to 6.60"]
]}
